TARGET OR SYSTEM: UniProtKB Q96IY4
PROTOCOL NOTES: TAFIa enzyme assay (Actichrome plasma TAFI activity kit)
COND: 15 min preincubation at room temperature, read at 420 nm, duplicate determination
REPORTED PROPERTY: IC50 (nM)

A = CCC(C)c1ccc(-c2cc(Cn3cnc(C(Cc4ccc(N)nc4)C(=O)O)c3)no2)cc1 (stereo not drawn)
B = Cc1cc(CC(C(=O)O)c2cn(Cc3nnc(C4CC4)s3)cn2)cnc1N (stereo not drawn)
C = Nc1ccc(CC(C(=O)O)c2cn(Cc3cc(-c4ccc(Cl)s4)on3)cn2)cn1 (stereo not drawn)
Sort ascending by IC50. Enter labels, ranked according to the request.
A, B, C

###

TARGET OR SYSTEM: TAFIa (Homo sapiens, UniProt Q96IY4)
Sequence (Q96IY4 115-423): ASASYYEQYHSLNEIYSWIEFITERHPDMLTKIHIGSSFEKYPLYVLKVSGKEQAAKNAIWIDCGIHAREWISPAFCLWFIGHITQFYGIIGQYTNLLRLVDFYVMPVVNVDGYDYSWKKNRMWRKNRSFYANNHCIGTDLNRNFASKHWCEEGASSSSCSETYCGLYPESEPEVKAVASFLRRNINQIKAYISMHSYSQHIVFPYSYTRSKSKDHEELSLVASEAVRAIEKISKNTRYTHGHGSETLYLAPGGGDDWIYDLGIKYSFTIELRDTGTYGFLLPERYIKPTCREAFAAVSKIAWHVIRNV
PROTOCOL NOTES: TAFIa enzyme assay (Actichrome plasma TAFI activity kit)
COND: 15 min preincubation at room temperature, read at 420 nm, duplicate determination
pIC50: −log10 of the molar value.
REPORTED PROPERTY: pIC50

1 = Nc1ccc(C[C@H](C(=O)O)c2cn(Cc3cc(-c4ccc(Cl)s4)on3)cn2)cn1
2 = Nc1ccc(CC(C(=O)O)c2cn(Cc3nnc(-c4ccc(Cl)cc4)s3)cn2)cn1 (stereo not drawn)
3 = COc1ccc(-c2nnc(Cn3cnc(C(Cc4ccc(N)nc4)C(=O)O)c3)s2)cc1 (stereo not drawn)
# order the molecules above by pIC50, highest value first Please write the labels in the order that was asked for.
1, 2, 3
(1: 8.40, 2: 7.39, 3: 7.11)
